Biological target: i-NOS (Homo sapiens)
Construct: The supernatant was collected as a source of i-NOS; endogenous in cells; sonicated, 54,000 rpm supernatant
Assay: i-NOS Inhibition Test
Details: i-NOS from supernatant of A549 cells stimulated with LPS, TNF-α, IL-1β, INF-γ; 14C-L-arginine substrate; 37° C., 10 minutes; pH 7.8
measurementType: IC50 (µM)

# example entries with known answers
C[C@@H]1CC(=N)N[C@@H]2C[C@H]12 (relative stereo); 0.047
C[C@@H]1CC(=N)N[C@@]2(C)C[C@@H]12 (relative stereo); 0.13
C[C@H]1CC(=N)N[C@@H]2C[C@H]12 (relative stereo); 0.09
C[C@H]1CC(=N)N[C@@H]2[C@H](Cl)[C@@H]21 (relative stereo) [3 (c)]; 0.02
C[C@H]1CC(=N)N[C@H]2[C@@H]1C2(C)C (relative stereo); 0.22
N=C1CC2(CCN1)CC2; 0.2

1: C[C@H]1CC(=N)N[C@@H]2[C@H](Cl)[C@@H]21 [compound 3]
2: C[C@H]1[C@H]2NC(=N)C[C@H](C)[C@@H]12 (relative stereo)
3: C[C@@H]1CC(=N)N[C@H]2C[C@@H]12
4: C[C@H]1CC(=N)N[C@H]2[C@@H]1C2(Cl)Cl (single isomer, unassigned) [compound 4]
5: C[C@H]1CC(=N)N[C@H]2[C@@H]1C2(Cl)Cl (relative stereo) [4 (a)]
Q: hey, can you rank those molecules up there by IC50? biggest number first please Respond with the label ranking, as requested.
Result: 3, 2, 5, 4, 1
